Each recorded value in this set is attributed to paper PMC5437670.

Biological target: recombinant human GAA (Myozyme), lysosomal α-glucosidase (Homo sapiens, UniProt P10253)
Assay: Enzyme activity assay, apparent IC50 on GAA
pIC50: −log10 of the molar value.
MEASUREMENT_LABEL: pIC50

[Q] Item "[N-]=[N+]=NCCCCNC(=O)[C@@H]1[C@H]2[C@H](O)[C@@H](O)[C@H](O)[C@@H](CO)[C@@H]12" has what recorded pIC50?
[A] < 3.82

[Q] Item "CCOC(=O)[C@@H]1[C@H]2[C@H](O)[C@@H](O)[C@H](O)[C@@H](CO)[C@@H]12" has what recorded pIC50?
[A] < 3.82

###

Sequence of the target: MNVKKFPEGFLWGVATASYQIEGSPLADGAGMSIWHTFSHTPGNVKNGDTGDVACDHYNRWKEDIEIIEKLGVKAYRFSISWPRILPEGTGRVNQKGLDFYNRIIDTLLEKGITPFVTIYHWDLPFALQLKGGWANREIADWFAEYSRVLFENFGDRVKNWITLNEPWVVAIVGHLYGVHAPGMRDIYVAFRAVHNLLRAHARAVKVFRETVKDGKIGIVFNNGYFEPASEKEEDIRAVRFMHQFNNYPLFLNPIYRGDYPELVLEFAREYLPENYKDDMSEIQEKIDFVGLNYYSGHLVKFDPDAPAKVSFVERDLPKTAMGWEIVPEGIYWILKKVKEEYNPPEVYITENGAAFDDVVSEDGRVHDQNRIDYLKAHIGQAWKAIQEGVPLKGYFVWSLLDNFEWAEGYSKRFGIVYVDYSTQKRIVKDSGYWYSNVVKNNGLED
MEASUREMENT_LABEL: pKi
A value of pKi is the negative decimal logarithm of a concentration given in moles per litre.

[Q] Item OC[C@H]1NC[C@H](O)[C@@H](O)[C@@H]1O [DNJ, deoxynojirimycin, reference compound] has what recorded pKi?
[A] 5.60

[Q] Item "CCOC(=O)[C@@H]1[C@H]2[C@H](O)[C@@H](O)[C@H](O)[C@@H](CO)[C@@H]12" has what recorded pKi?
[A] 4.65

[Q] Item "[N-]=[N+]=NCCCCNC(=O)[C@@H]1[C@H]2[C@H](O)[C@@H](O)[C@H](O)[C@@H](CO)[C@@H]12" has what recorded pKi?
[A] 8.09
